- subject-of-test: Nuclear receptor subfamily 1 group I member 2 (Homo sapiens)
- procedure-details: Human pregnane X receptor (PXR) activation by small molecules, qHTS assay (AID 1346985); further: nearly all actives have a fitted effect of over 40% in size
- setup-conditions: DPX-2 HepG2 CYP3A4-luciferase, 24 h; series mostly up to 38.3 µM
Results filed as inconclusive are left out. Calls of active or inactive are those of the source. The call rests on the fitted dose curve; in most records, active means well fitted activation curve with a large enough effect in the repeat runs; inconclusive means weak or mixed curves; inactive means flat fitted curve, though single readings scatter.
Could you please pick one outcome from this set? active, inactive

Field: example entries. Status: answers known.
- compound: "COC(=O)C1=C(C)NC(C)=C(C(=O)OCCN2CCN(C(c3ccccc3)c3ccccc3)CC2)C1c1cccc([N+](=O)[O-])c1 (centres undefined)"
  assigned-category: "inactive"
- compound: "CCc1cccc(CC)c1NC(=O)CN(CC(=O)O)CC(=O)O"
  assigned-category: "inactive"
- compound: "Nc1nc(N)nc(-c2cc(Cl)ccc2Cl)n1"
  assigned-category: "inactive"
- compound: "CC(CCc1ccccc1)NCC(O)c1ccc(O)c(C(N)=O)c1 (centres undefined)"
  assigned-category: "inactive"
- compound: "Cc1nc(-c2ccc(Cl)cc2)oc1COC(C)(C)C(=O)O"
  assigned-category: "inactive"

Record lookup: outcome of this test for CN1CCCCC1CCN1c2ccccc2Sc2ccc(S(C)=O)cc21 (centres undefined) ?
active
